# Test system: HSSY-II tumor spheroid viability
# Protocol description: Anticancer human tumor HSSY-II cell line growth inhibition;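 note: spheroids exposed to compounds for seven days before reading; percent of DMSO vehicle control viability so 100% = untreated level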
# Measurement parameters: second compound 0.000949 µM; first compound 0.316 µM; stronger effect = lower value; spheroids with HUVEC and MSC
Here the recorded viability, T/C is given for each entry.
Assay metric: viability, T/C (%)

Compound | Assay metric | Observed measurement
CC(C)n1c(=O)n(C)c2cnc3cc(F)c(-c4ccc(OCCCN5CCCCC5)nc4)cc3c21 + COc1cc2c(cc1O)CCNC21CSC2c3c(OC(C)=O)c(C)c4c(c3C(COC1=O)N1C(O)C3Cc5cc(C)c(OC)c(O)c5C(C21)N3C)OCO4 | viability, T/C | 3.44
COc1cc(C)[nH]c(=O)c1CN1CCc2c(Cl)cc(C(OC)C3COC3)c(Cl)c2C1=O (configuration not stated) + COc1cc2c(cc1O)CCNC21CSC2c3c(OC(C)=O)c(C)c4c(c3C(COC1=O)N1C(O)C3Cc5cc(C)c(OC)c(O)c5C(C21)N3C)OCO4 | viability, T/C | 3.22
